Numbers sourced from patent US10144727B2.

# maps each entry to its MTD
tested on: influenza A/Texas/36/91 (H1N1); test: Efficacy of selected iminosugars in mice; Influenza A/Texas/36/91 (H1N1) challenge; assay type: in vivo, BALB/c mice; conditions: 100 mg/kg oral TID for 10 days, infected ~1 LD90

>  <smiles>
COCCCCCCCCC(=O)N1C[C@H](O)[C@@H](O)[C@H](O)[C@H]1CO

>  <MTD>
10.5 days

$$$$
>  <smiles>
COC(=O)CCCCCCCCN1C[C@H](O)[C@@H](O)[C@H](O)[C@H]1CO

>  <MTD>
7.5 days

$$$$
>  <smiles>
OCCCCCCCCCN1C[C@H](O)[C@@H](O)[C@H](O)[C@H]1CO

>  <MTD>
8 days

$$$$

response.value for COCCCCCCCOC(=O)N1C[C@H](O)[C@@H](O)[C@H](O)[C@H]1CO (field: MTD) = 7 days
